These data points were gathered from paper PMC9578396.

# assay-system: PBP1a (Acinetobacter baumannii, UniProt A0ABX6CK30)
# Sequence (A0ABX6CK30 entry or part of it): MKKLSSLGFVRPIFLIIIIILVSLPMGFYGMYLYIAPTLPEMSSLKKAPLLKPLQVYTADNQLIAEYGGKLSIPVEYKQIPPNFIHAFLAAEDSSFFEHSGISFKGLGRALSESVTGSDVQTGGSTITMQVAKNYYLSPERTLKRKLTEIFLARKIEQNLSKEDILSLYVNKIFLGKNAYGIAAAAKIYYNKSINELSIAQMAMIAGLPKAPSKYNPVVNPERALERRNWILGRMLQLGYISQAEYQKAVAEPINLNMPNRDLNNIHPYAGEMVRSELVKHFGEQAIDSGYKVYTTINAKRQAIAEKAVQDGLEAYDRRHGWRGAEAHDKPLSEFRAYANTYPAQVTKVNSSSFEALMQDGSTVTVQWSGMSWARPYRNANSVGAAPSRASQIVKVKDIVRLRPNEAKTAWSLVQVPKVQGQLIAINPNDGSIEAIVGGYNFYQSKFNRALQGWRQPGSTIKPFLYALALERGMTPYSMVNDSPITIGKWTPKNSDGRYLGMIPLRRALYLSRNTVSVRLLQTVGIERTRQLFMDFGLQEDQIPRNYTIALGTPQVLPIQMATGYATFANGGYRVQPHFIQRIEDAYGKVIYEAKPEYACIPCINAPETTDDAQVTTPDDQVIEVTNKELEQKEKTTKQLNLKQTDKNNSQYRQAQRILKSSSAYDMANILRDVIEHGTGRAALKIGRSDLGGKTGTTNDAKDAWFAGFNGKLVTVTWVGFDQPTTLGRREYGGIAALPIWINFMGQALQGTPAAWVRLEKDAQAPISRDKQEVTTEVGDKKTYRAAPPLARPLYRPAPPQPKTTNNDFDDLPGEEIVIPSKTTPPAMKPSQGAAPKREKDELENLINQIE
# test-description: Gel-based Bocillin FL competition PBP binding assay
# cond: read-out: Relative binding IC50, PBP1a; A. baumannii ACM1320 membranes; Bocillin FL step 0°C for xeruborbactam, 30°C for beta-lactams
pIC50: −log10 of the molar value.

smiles-representation	pIC50
C[C@@H](O)[C@H]1C(=O)N2C(C(=O)O)=C(S[C@@H]3CN[C@H](C(=O)N(C)C)C3)[C@H](C)[C@H]12	7.15

---

# Tested on: Klebsiella pneumoniae
# test-description: microbe, parasite or virus in culture
# Format: cell-based
# cond: Klebsiella pneumoniae, KPM1026a, alone; read-out: MIC

compound	u	MIC
CC1=C[C@@H]2CN(C(=O)N2OS(=O)(=O)O)[C@@H]1C(N)=O [Durlobactam]	mg/L	0.25
CO/N=C(\C(=O)N[C@@H]1C(=O)N2C(C(=O)[O-])=C(C[N+]3(C)CCCC3)CS[C@H]12)c1csc(N)n1 [Cefepime]	mg/L	0.03
O=C(NNC(=O)[C@@H]1CC[C@@H]2CN1C(=O)N2OS(=O)(=O)O)[C@@H]1CCCNC1 [Zidebactam]	mg/L	0.25
CC1(C)S[C@@H]2[C@H](/N=C/N3CCCCCC3)C(=O)N2[C@H]1C(=O)O [Mecillinam]	mg/L	0.25
O=C(O)c1c(F)ccc2c1OB(O)[C@@H]1C[C@H]21 [Xeruborbactam]	mg/L	16
